- Test system: K4 kissing-loop RNA reporter
- assayName: apparent KD of K4 kissing-loop reporter; higher = weaker reporter binding
- conditionInfo: Eterna round: R107; input ligand: arginine 13.2 mM
reportedEndpoint: apparent KD of K4 kissing-loop reporter (nM)
Respond numerically; units are nM and should not be typed.

Check out these entries, answers already filled in.
# monomerSequence, systemUnderTest, apparent KD of K4 kissing-loop reporter, nM
measured = [
    ("AAUAAGGAGUGAUGUUCCAAGUGAUGUUAACGAGGACCGGUACGGCCGCCACUCGAUACGGCCGGAAAGUAAGAUAAACUACAAU [Same State - Tryptophan A (Freestyle 3)]", "K4 kissing-loop RNA reporter", 51.3),
    ("UGUUAUGUAUCAGGAUAUUAGUGUUGUUUGUUUAUGUUAGUGAUGUUGAUAUUUGUUUUAUGUAUUUAAGAAGGGAUUGAGAUGU [kkplmullin]", "K4 kissing-loop RNA reporter", 339),
    ("UAAGAAUAAGUAGCAGUGAUGUUGCUACUGCGAGGACCGGUACGGCCGCCACUCGAGUCCUCGAAACAUCACUGAACGAGGAAUA [whbob_SS_Tryp_A_m11]", "K4 kissing-loop RNA reporter", 190),
    ("UAACUGCAGUGAUGUUGCAGAUGUCCUGACUAGGAUAUCAGGAAACUGAGAAGGAGUCCCUUCUACUGCAACAAGAAGGAGGACA [[K1]-[K2]-[F1]'-[F1]-[F2]-[F2]'-[K]'-[F]''_Design2]", "K4 kissing-loop RNA reporter", 347),
]

Would you kindly look at the next entry?
apparent KD of K4 kissing-loop reporter recorded for this sequence, AUCGUUGUCUGAGGAUAUCGGUUAUCUGUAGUGAUGUUACAGUAUAUUGAUAUUAUAGUUUCUUUUCGAGAAGGCAGACUACGUA [JR_Nu_ExcFMNB_Sub021] , is 61.3

----------
- System: K4 kissing-loop RNA reporter;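 also: bound reporter read as fluorescence of individual clusters on recovered sequencing chips by microscopy, with normalized cluster intensities fitted with a binding model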
- assayName: apparent KD of K4 kissing-loop reporter; higher = weaker reporter binding
- conditionInfo: Eterna round: R107; input ligand: arginine 13.2 mM
reportedEndpoint: apparent KD of K4 kissing-loop reporter
Give the value; after it, write the unit.

# monomerSequence, systemUnderTest, apparent KD of K4 kissing-loop reporter
data = [
    ("CUAAGGGAAGCAGGAUAUCGGUAUUAGUGUGUUAAAUAAACACUCGGGUAGUGAUGUUGCCCGUGGCGAGAAGGGCUACCAUUGG [Laace]", "K4 kissing-loop RNA reporter", "44.8 nM"),
    ("CCGGACACCUCGGAUACCAGCCUGAGUGAUGUUCAAGCUGAACUCUCUUAAUAGGUCACCGGCCCUUGGCAGCCGCAUCCUAAGC [theeternabot_exclusion_KL_Theo_B_46]", "K4 kissing-loop RNA reporter", "269 nM"),
]

Now look at this one.
# apparent KD of K4 kissing-loop reporter of GCAUCAUGCUACGAUACCAGAAGUUCCCUUUAGUGUAGUGAUGUUGCAGAUAUUGCUUACUUCCCUUGGCAGCGUUUGACGGGUA [theeternabot_sameState_KL_Theo_B_35] = 205 nM

----------
- System: MS2 coat protein
- assayName: apparent KD of MS2 coat protein; designed switch direction (-1 OFF switch, 1 ON switch): -1; higher = weaker reporter binding
- conditionInfo: input ligand: none
reportedEndpoint: apparent KD of MS2 coat protein (µM)
I only need the number, in µM, no unit after it.

# monomerSequence, resultNumber
measured = [
    ("CCAACUCAGGAGGAUAUCUCCGCGAGUUCACGAAGAGAAGGCCUGACAUGAGGAUCACCCAUGUGUCCAUGAGG [Eternabot (Original) Solution 8] (Eterna round: R97, puzzle: Exclusion 6)", 0.0696),
    ("ACCAUAGAUGUAGGAUAUCCAUGAAGAUAACAAGGAGAAGGACAUGAGGAUCACCCAUGUAAGUAUUAUGAAUGUAGCGACAGC [Meechl Ex NG1] (Eterna round: R96, puzzle: Exclusion NG 1)", 0.0595),
    ("UCCUUACUGGUCAGGAUAUACAUUCGCGAGUGGGUGUAGAAGGGACAUGAGGAUCACCCAUGUACGUUACAUCC [alecazam54f] (Eterna round: R97, puzzle: Brourd's mod of Exclusion 4)", 0.0205),
    ("AGGACAUGAGGAUCACCCAUGUAGUGAGGUGUAUCCGAAGACGAGGAUAUACAGAGGAAAUAUCUGUAGAAGGUGUUAUAAAUU [Atleusan] (Eterna round: R96, puzzle: Exclusion NG 3)", 0.766),
    ("GUCACAUGGACAUAGGAUCACAUGAGGAUCACCCAUGUGACUAACAAGCUUUUUGCUCGUCUUAUGUCUAUGUGAAU [Stov1/16-A2] (Eterna round: R97, puzzle: Sensor, turn-off variant 1)", 0.0143),
]

// apparent KD of MS2 coat protein (MS2 coat protein) for UAUUAGCAAGUGAGAUCCCACAUGAGGAUCACCCAUGUGCUCGUCUUAUAAGGUACUGUGACGAAAGUCACGGUACC [Sensor 3, v1 - 91 v1] (Eterna round: R97, puzzle: Sensor, turn-off variant 1) = 0.0476

Value sought: apparent KD of MS2 coat protein, system MS2 coat protein, item ACUGGUCGAGGAUAUACAUGAGGAUCACCCAUGUAGAUCAACCAGCGAUAGCUGGAAUGUAGAAGGCGACCAGU [E3/5-A2] (Eterna round: R97, puzzle: Exclusion 3) . Result: 0.0246

Log: MS2 coat protein, sequence GAGUUAGCGUGUGGAAUAUACAUGAGGAUCACCCAUGUUAGCUUAUAUAUUGCUCGUCUUAUAACAACACUUAACUG [Mod JX-Electric-eye4] (Eterna round: R97, puzzle: Sensor, turn-off variant 1) , apparent KD of MS2 coat protein = 0.0458

Record AAGCAGCGAGGAUAUGCUUGCGCGUGUCCUAGUUGAAAUAAACUUGAGGAUCACCCAAGUAGAAGGCGCAACCC [EX2 #42] (Eterna round: R97, puzzle: Exclusion 2) has MS2 coat protein apparent KD of MS2 coat protein equal to 0.0419

The value of apparent KD of MS2 coat protein recorded for UUUAAGGGAAUUAAGAUCACAUGAGGAUCACCCAUGUAUAUAUAGGAUAUCAGCUCGUUUAGAGCUGAGAAGGAUAUAUACAUA [ExNG3/6-A2] (Eterna round: R96, puzzle: Exclusion NG 3) when tested on MS2 coat protein reads 0.155

Here CGAUAAUCCUAGGAUAUGCUAGACGAAAGUCUAGCAGAAGGAGGAACAUGAGGAUCACCCAUGUGUCCUAAUCG [Mat - Exclusion 6 - Eli Mod - D17] (Eterna round: R97, puzzle: Exclusion 6) was tested on MS2 coat protein, and its apparent KD of MS2 coat protein came to 0.0153

Lab note: sequence AUCAUGUUAGGAUAUUACGACGCAGCGGGUAGCCCGUAAAGUAAGAAGGAACAUGAGGAUCACCCAUGUUCAAA [EX4 B.22] (Eterna round: R97, puzzle: Exclusion 4) tested on MS2 coat protein; recorded apparent KD of MS2 coat protein was 0.0196

Query UCUUAUUGAGGAUAUACAUUAAAAUACAUGAGGAUCACCCAUGUUCUUCAAUGUAUAUAUGUAGAAGGCAGAAUAU [Mat - Exclusion 5 - JL Mod - D27] (Eterna round: R97, puzzle: Exclusion 5) on MS2 coat protein; apparent KD of MS2 coat protein returned: 0.0288

Noted apparent KD of MS2 coat protein for UAUUAGCAAGCGAGAUCCCACAUGAGGAUCACCCAUGUGCAUCCAGAAUUACUGGGUGCAAAAGCUCGUCUUAUAUA [Winner reversed engineered 2] (Eterna round: R97, puzzle: Sensor, turn-off variant 1) , tested on MS2 coat protein: 0.0581

Summary: GCUCAACAUGAGGAUCACCCAUGUCAGGAUAUGCGAAUUUCAUCAAAAGAUGAAAUUUGCAGAAGGGACUGAGC [Omei Ex1 A31] (Eterna round: R97, puzzle: Exclusion 1) , MS2 coat protein, apparent KD of MS2 coat protein = 0.022

Param item: CCCACAAGCUUUUUGCUCGACAUGAGGAUCACCCAUGUUGAAUGGGUUAUGUGUGUGUGAUACAUAUAUAUGGUCCU [-25.6, -50.5 kcal, A 23%] (Eterna round: R97, puzzle: Sensor, turn-off variant 1) ; param system: MS2 coat protein; output apparent KD of MS2 coat protein: 0.207

Record AGCUAUGCCGAGGAUAUCGGCUGGAUAAGACACUGAGAAGGCGGGACAUGAGGAUCACCCAUGUGAACCUAUAU [Eternabot (L1) Solution 30] (Eterna round: R97, puzzle: Exclusion 6) / MS2 coat protein, apparent KD of MS2 coat protein recorded as 0.0302

Measured apparent KD of MS2 coat protein (MS2 coat protein), entry GGAACGACAGGAUAUACAUGAGGAUCACCCAUGUGAGGAAGAGUAAAGUGUGAAGGAGGUAGAAGGGUCAAGAA [AK-MS2ROC-r4-exclusion3-3] (Eterna round: R97, puzzle: Exclusion 3) : 0.0388
